Experiment: In vitro cytotoxicity (MTT) on GM08402
Assay type: cell-based, human
Conditions: human, GM08402 fibroblasts
Counter-ions that a name gives are not always drawn.
reported-property: IC50 at 48 h
Write the quantity with the unit trailing the number.

>>> recorded_measurement("[2H]C([2H])([2H])OC(=O)c1cc2ccc3c(Br)c(CN4CCN(C)CC4)[se]c3c2oc1=O [Compound I-1, dihydrochloride]")
"89 µM"
>>> recorded_measurement("COC(=O)c1cc2ccc3c(Br)c(CN4CCN(C)CC4)[se]c3c2oc1=O [Compound I-0, dihydrochloride, reference compound]")
"77 µM"

// next entry
Please give the measured IC50 at 48 h for this molecule: Cl.Cl.[2H]C([2H])([2H])C([2H])([2H])OC(=O)c1cc2ccc3c(Br)c(CN4CCN(C)CC4)[se]c3c2oc1=O [Compound I-2]
94 µM

* * *

Assay: In vitro cytotoxicity (MTT) on 3T3
Format: cell-based, mouse
Details: mouse, 3T3 embryo fibroblasts, 3T3, MTT
Where a name gives a salt, the structure may show the parent alone.
reported-property: IC50 at 48 h (µM)
Numbers only here, please. The scale is µM.

Worked cases, IC50 at 48 h given:
>>> recorded_measurement("Cl.Cl.[2H]C([2H])([2H])C([2H])([2H])OC(=O)c1cc2ccc3c(Br)c(CN4CCN(C)CC4)[se]c3c2oc1=O")
64
>>> recorded_measurement("COC(=O)c1cc2ccc3c(Br)c(CN4CCN(C)CC4)[se]c3c2oc1=O [Compound I-0, dihydrochloride, reference compound]")
100

Let's switch to this compound now.
Entry under review: [2H]C([2H])([2H])OC(=O)c1cc2ccc3c(Br)c(CN4CCN(C)CC4)[se]c3c2oc1=O [Compound I-1, dihydrochloride] . Reported IC50 at 48 h?
66
